Test: Intracellular stability of optimal epitopes, immature DC extracts
Assay type: in vitro ADME, Human
Conditions: human, cells or culture medium, pH 4; 1nmol peptide, 15μg immature DC whole cell extract, degradation buffer pH4.0, 37°C, aliquots 0, 10, 30, 60 minutes; RP-HPLC, one-phase exponential decay; read-out: half-life at pH4.0
ENDPOINT: half-life
Please report the result as a number followed by the unit.

The recorded half-life for entry CC[C@H](C)[C@H](NC(=O)[C@@H](NC(=O)[C@H](CCC(=O)O)NC(=O)[C@@H]1CCCN1C(=O)[C@H](CO)NC(=O)[C@H](Cc1ccccc1)NC(=O)[C@H](C)NC(=O)[C@@H](N)CCCCN)C(C)C)C(=O)N1CCC[C@H]1C(=O)N[C@@H](CCSC)C(=O)N[C@@H](Cc1ccccc1)C(=O)O equals 1.9 min
